Reported pIC50 values for the following compounds.
# target.or.system: human type 1 glycine transporter (GlyT1) (Homo sapiens)
# Construct: Used in the experiment were T98G cells (glioma cells) developing a human type 1 glycine transporter (GlyT1); endogenous in cells; host or cells: T98G human glioma cells
# assay.text: Glycine uptake inhibition experiment ([3H] glycine uptake in T98G cells)
# Assay type: cell-based
# condition.parameters: [3H] glycine 250 nM, 15 min, room temperature, read-out: IC50 (glycine uptake inhibiting activity)
pIC50: −log10 of the molar value.

{"compound": "Cn1cnc(C(=O)N(Cc2cc(F)cc(C(F)(F)F)c2)C2CCOCC2)c1", "pIC50": 7.57}
{"compound": "Cn1cnc(C(=O)N(Cc2ccc(F)c(-c3ccc(OC(F)(F)F)cc3)c2)C2CCOCC2)c1", "pIC50": 8.22}
{"compound": "COC(=O)C(Cc1cccc(OC(F)(F)F)c1)N(C(=O)c1cn(C)cn1)C1CCOCC1 (centres unmarked)", "pIC50": 7.52}
{"compound": "Cn1cnc(C(=O)N(CCc2cccc(OC(F)(F)F)c2)C2CCOCC2)c1", "pIC50": 7.85}
{"compound": "Cn1cnc(C(=O)N(Cc2ccc(F)c(-c3ccc(OC(F)(F)F)cc3)c2)C2CCSCC2)c1", "pIC50": 7.69}

Cited source: patent US8623898B2
